# EXPERIMENT DESCRIPTION: Selectivity index, ratio of IC50 for HEK293T cells to MIC for Candida parapsilosis ATCC 22019
# Type: toxicity
# MEASUREMENT CONDITIONS: human, read-out: Selectivity Index
Overview of recorded selectivity ratio for various molecules
REPORTED METRIC: selectivity ratio

* C[C@@H]1C[C@H](C)C[C@H](C)[C@@H](O)CC(=O)O[C@H]([C@@H]2CCC[C@H]2C(=O)OCCN2CCOCC2)C/C=C/C=C(/C#N)[C@H](O)[C@@H](C)C1 | 0.28
* C[C@@H]1C[C@H](C)C[C@H](C)[C@@H](O)CC(=O)O[C@H]([C@@H]2CCC[C@H]2C(=O)OCCN2CCCC2)C/C=C/C=C(/C#N)[C@H](O)[C@@H](C)C1 | 2.81

The reported numbers originate from ChEMBL document CHEMBL4382218.
